Experimental Details: NCI Yeast Anticancer Drug Screen. Data for the wt1 strain (AID 149);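 note: 0% = growth of vehicle-treated wt1 cultures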
Assay Conditions: S. cerevisiae wt1 strain (SPY 50644) growth inhibition; at 100.0 µM; stronger effect = higher value
Compounds without any hit were thinned out: in the full panel of roughly 79,000, 15% have a hit.
// reported growth inhibition for each item listed
Please reply with the bare figure in % and do not write the unit itself.

Recorded results for 4 compounds are shown here.
CCCCOC(=O)N[C@H]1CCc2cc(OC)c(OC)c(OC)c2-c2ccc(SC)c(=O)cc21 | 55
c1ccc2c(c1)C(=NCCCN1CCCCCC1)c1cccn1-2 | 93
O=c1ssc2ncccc12 | 97
O=C(Cc1csc2[n+]1C(=O)/C(=C/c1ccc(Cl)cc1)S2)Nc1ccccc1 | 60

Ask | Annotate the compound "CCCCCCCCCCCC1=C(O)C(=O)C=C(O)C1=O" with its measured growth inhibition.
Reply | 91

Ask | Dear colleague, please send me the reported growth inhibition for "CCCc1cc(C(=O)OCC)cc(CCC)c1O" when you can.
Reply | 93

Ask | Give growth inhibition for the following compound: "Cc1ccc(S(=O)(=O)NC(=O)NC2=NC(C)(C)N(c3ccc(Cl)c(Cl)c3)C(N)=N2)cc1"
Reply | -3

Ask | Tell us which growth inhibition value is on record for "S=C(N/N=C/c1ccccn1)Nc1ccc(Cl)cc1"
Reply | 42

Ask | Identify the reported growth inhibition for the following entry. "COc1ccc(N=C2C(=O)Nc3ccc(Br)cc32)cc1"
Reply | 15

Ask | Please report the measured growth inhibition for CC(C(=O)N1C(=O)N(C(=O)[C@H](C)C(O)c2ccccc2)[C@H](c2ccccc2)[C@H]1c1ccccc1)[C@@H](O)c1ccccc1 (stereo not given in full)
Reply | 36
